Reporter Assay EC50 values for the binders below.
- measurement-target: human PD-1 expressed on cells (CHO human PD-1 cells) (human, UniProt Q15116 21-288)
- Sequence (Q15116 21-288): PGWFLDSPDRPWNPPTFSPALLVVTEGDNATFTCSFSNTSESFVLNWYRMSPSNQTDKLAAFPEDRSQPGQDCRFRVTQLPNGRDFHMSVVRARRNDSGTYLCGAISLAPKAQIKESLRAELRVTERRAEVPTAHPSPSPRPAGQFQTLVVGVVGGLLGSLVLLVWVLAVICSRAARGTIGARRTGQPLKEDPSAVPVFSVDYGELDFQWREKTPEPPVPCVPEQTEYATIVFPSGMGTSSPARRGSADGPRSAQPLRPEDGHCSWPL
- test-details: cell-based or functional assay
The answer is to be given in nM; state only the numeric part.

{"binder": "Humabody® 1.99 (VHH, human VH single domain antibody) VHH: EVQLVESGGGLVKPGGSLRLSCAASGFTFSDRSMTWMRQAPGKGLEWVSYISSGGGVKFYADSVKGRFTISRDNAKNSLYLQMNSLRAEDTAVYYCAREAPLRLGESPHDAFDISGQGTMVTVSS", "Reporter Assay EC50, nM": 4.2}
{"binder": "Humabody® 1.72 (VHH) VHH: QVQLVESGGGLVKPGGSLRLSCAASGFTFSDSSMSWMRQAPGKGLEWVSYISSGGGVIFYADSVKGRFTISRDNAKNSLYLQMNSLRADDTAVYYCAREAPLRLGESPHDAFDISGQGTMVTVSS", "Reporter Assay EC50, nM": 26.1}
{"binder": "Humabody® 1.58 (VHH, human VH single domain antibody) VHH: QVQLVESGGGLVKPGGSLRLSCAASGFTFSDNTMTWMRQAPGKGLEWVSYISTGGGVKFYADSVKGRFTISRDNAKNSLYLQMNSLRADDTAVYYCAREAPLRLGESPHDAFDIWGQGTMVTVSS", "Reporter Assay EC50, nM": 7.1}

API: the following record is the query input.
Query: Need Reporter Assay EC50, item Humabody® 1.45 (VHH, human VH single domain antibody) VHH: QVQLVESGGGLVKPGGSLRLSCAASGFTFSDYSMSWMRQAPGKGLEWVSYISSGGGVIFYADSVKGRFTISRDNAKNSLYLQMNSLRADDTAVYYCAREAPLRLGESPHDAFDIWGQGTMVTVSS
Result: 74

Attribution: patent US20200239573A1
